# test.system: p53 Y220C mutant protein (amino acid residues 94-293) (Homo sapiens, UniProt P04637, Y220C)
# Construct: p53 Y220C mutant protein (amino acid residues 94-293)
# assay.comment: Thermal Shift Assay (TSA), dTM
# Type: binding
# cond: 10 uM compound; p53 Y220C; read-out: TSA P53 Y220C dTM
Documented ΔTm at 10 µM across a set of compounds

What value of measured ΔTm at 10 µM is listed for CNC(=O)c1cnc(OC)c(NCC#Cc2nc3c(N[C@@H]4CCN(C)C[C@@H]4F)nccn3c2SC(F)(F)F)c1 [Example 254] ? ≥ 10 °C

What value of measured ΔTm at 10 µM is listed for CNC(=O)c1ccc(NCC#Cc2nc3c(N[C@@H]4CCN(C)C4)cccn3c2SC(F)(F)F)c(OC)c1 [Example 242] ? 5 to 10 °C

What value of measured ΔTm at 10 µM is listed for CNC(=O)c1ccc(OC)c(NCC#Cc2nc3c(N[C@@H]4CCNC[C@@H]4F)nccn3c2SC(F)(F)F)c1 [Example 307] ? ≥ 10 °C

// switching to the query compound
What value of measured ΔTm at 10 µM is listed for COc1ccc(C(=O)NC[C@H](C)O)cc1NCC#Cc1cc2c(N[C@@H]3CCN(C)C[C@@H]3F)nccn2c1SC(F)(F)F [Example 358] ? ≥ 10 °C

###

Documented AC50 across a set of compounds
# test.system: p53 Y220C (Homo sapiens, UniProt P04637, Y220C)
# assay.comment: Luciferase Reporter Assay (Luc), p53 response element, NClH1299 cells with inducible p53 Y220C
# Format: cell-based
# cond: AC50; luciferase reporter, NClH1299 inducible p53 Y220C, 6 hour; read-out: Luc P53 Y220C AC50

What value of measured AC50 is listed for CN1CC[C@@H](Nc2cccn3c(SC(F)(F)F)c(C#CCNc4ccc(P(C)(C)=O)cc4)nc23)[C@@H](F)C1 ? 750 to 1500 nM

What value of measured AC50 is listed for CNC(=O)c1cnc(OC)c(NCC#Cc2cc3c(N[C@@H]4CCN(C)C[C@@H]4F)cccn3c2SC(F)(F)F)c1 ? < 750 nM

What value of measured AC50 is listed for CN1CC[C@@H](Nc2cccn3c(SC(F)(F)F)c(C#CCNc4ccc(C(=O)NC[C@@H]5COCCO5)cc4)cc23)[C@@H](F)C1 ? < 750 nM

New cases:
What value of measured AC50 is listed for CNC(=O)c1cnc(OC)c(NCC#Cc2cc3c(N[C@@H]4CN(C)C[C@@H]4F)nccn3c2SC(F)(F)F)c1 ? < 750 nM

###

# test.system: p53 Y220C (Homo sapiens, UniProt P04637, Y220C)
# assay.comment: Luciferase Reporter Assay (Luc), p53 response element, NClH1299 cells with inducible p53 Y220C
# Assay type: cell-based
# cond: Emax; luciferase reporter, NClH1299 inducible p53 Y220C, 6 hour
# Method: Luciferase Reporter Assay Protocol The cells were then used for p53 reporter assay. 5,000 cells were seeded in each well of 384 plate and cultured in 0.5 ug/mL doxycycline (D3072; Sigma) containing medium for 24 hours before compound treatment. […] The luciferase activity was immediately measured with PheraStar microplate reader.
observed.property: Emax

// map COc1cc(S(C)(=O)=O)ccc1NCC#Cc1cc2c(N[C@@H]3CCNC[C@@H]3F)cccn2c1SC(F)F to recorded Emax (system: p53 Y220C (Homo sapiens, UniProt P04637, Y220C)) > 90%

// map COc1ccc(C(=O)NC[C@H](C)O)cc1NCC#Cc1cc2c(N[C@@H]3CCN(C)C[C@@H]3F)nccn2c1SC(F)(F)F to recorded Emax (system: p53 Y220C (Homo sapiens, UniProt P04637, Y220C)) > 90%

// map COc1cc(C(=O)NCC2(O)CC2)ccc1NCC#Cc1cc2c(N[C@@H]3CCN(C)C[C@@H]3F)cccn2c1SC(F)(F)F to recorded Emax (system: p53 Y220C (Homo sapiens, UniProt P04637, Y220C)) > 90%

New cases:
// map CNC(=O)c1cnc(OC)c(NCC#Cc2nc3c(N[C@H]4C[C@@H]5CC[C@H]([C@H]4F)N5C)cccn3c2SC(F)(F)F)c1 to recorded Emax (system: p53 Y220C (Homo sapiens, UniProt P04637, Y220C)) 70 to 80%

// map CN1CC[C@@H](Nc2cccn3c(SC(F)(F)F)c(C#CCNc4ccc(C(=O)NC[C@H]5COCCO5)cc4)cc23)[C@@H](F)C1 to recorded Emax (system: p53 Y220C (Homo sapiens, UniProt P04637, Y220C)) > 90%

// map COc1cc(C(=O)NCC(C)(C)O)ccc1NCC#Cc1cc2c(N[C@@H]3CCN(C)C[C@@H]3F)cccn2c1SC(F)(F)F to recorded Emax (system: p53 Y220C (Homo sapiens, UniProt P04637, Y220C)) > 90%

###

# test.system: p53 Y220C mutant protein (amino acid residues 94-293) (Homo sapiens, UniProt P04637, Y220C)
# Construct: p53 Y220C mutant protein (amino acid residues 94-293)
# assay.comment: Surface Plasmon Resonance (SPR) assay, Kd_kinetic
# Type: binding
# cond: SPR; p53 Y220C; read-out: SPR P53 Y220C KD kinetic
observed.property: Kd

What value of measured Kd is listed for CN1CC[C@@H](Nc2cccn3c(SC(F)(F)F)c(C#CCNc4ccc(C(=O)N5CC(C)(O)C5)cc4)cc23)[C@@H](F)C1 ? < 0.01 µM

New cases:
What value of measured Kd is listed for COc1ccc(C(=O)NC[C@H](C)O)cc1NCC#Cc1cc2c(N[C@@H]3CCN(C)C[C@@H]3F)cccn2c1SC(F)(F)F ? < 0.01 µM

What value of measured Kd is listed for CN1CC[C@@H](Nc2cccn3c(SC(F)(F)F)c(C#CCNc4ccc(C(=O)NC[C@@H](O)CO)cc4)cc23)[C@@H](F)C1 ? < 0.01 µM

###

Documented Emax across a set of compounds
# test.system: p53 Y220C (Homo sapiens, UniProt P04637, Y220C)
# assay.comment: Luciferase Reporter Assay (Luc), p53 response element, NClH1299 cells with inducible p53 Y220C
# Format: cell-based
# cond: Emax; luciferase reporter, NClH1299 inducible p53 Y220C, 6 hour

In the examples that follow, each entry is paired with its recorded Emax.
What value of measured Emax is listed for CNC(=O)c1cc(NCC#Cc2nc3c(N[C@@H]4CCN(C)C[C@@H]4F)cccn3c2SC(F)(F)F)c2nccn2c1 [Example 277] ? > 90%

What value of measured Emax is listed for COc1cc(C(=O)NCC(C)(C)O)ccc1NCC#Cc1cc2c(N[C@@H]3CCNC[C@@H]3F)cccn2c1SC(F)(F)F [Example 408] ? 80 to 90%

What value of measured Emax is listed for CN1CC[C@H](Nc2cccn3c(SC(F)(F)F)c(C#CCNc4ccc(P(C)(C)=O)c5scnc45)cc23)[C@H](F)C1 [Example 389, formic acid] ? > 90%

What value of measured Emax is listed for COc1cc(P(C)(C)=O)ccc1NCC#Cc1cc2c(N[C@@H]3CCN(C)C[C@@H]3F)cccn2c1SC(F)(F)F [Example 346] ? > 90%

What value of measured Emax is listed for CNC(=O)c1ccc(OC)c(NCC#Cc2cc3c(N[C@@H]4CN(C)C[C@@H]4F)nccn3c2SC(F)F)c1 [Example 331] ? > 90%

What value of measured Emax is listed for CNC(=O)c1ccc(OC)c(NCC#Cc2nc3c(NC4COC4)cccn3c2SC(F)(F)F)c1 [Example 240] ? > 90%

// switching to the query compound
What value of measured Emax is listed for COc1cc(P(C)(C)=O)cnc1NCC#Cc1cc2c(N[C@@H]3CCN(C)C[C@@H]3F)cccn2c1SC(F)(F)F [Example 402] ? 80 to 90%

###

# test.system: p53 Y220C mutant protein (amino acid residues 94-293) (Homo sapiens, UniProt P04637, Y220C)
# Construct: p53 Y220C mutant protein (amino acid residues 94-293)
# assay.comment: Surface Plasmon Resonance (SPR) assay, Kd_kinetic
# Type: binding
# cond: SPR, kinetic KD, p53 Y220C; read-out: SPR P53 Y220C KD kinetic
Documented Kd across a set of molecules

In the examples that follow, each entry is paired with its recorded Kd.
What value of measured Kd is listed for CCNC(=O)c1ccc(OC)c(NCC#Cc2nc3c(N[C@@H]4CCN(C)C[C@@H]4F)cccn3c2SC(F)(F)F)c1 ? < 10 nM

What value of measured Kd is listed for COc1cc(S(C)(=O)=O)ccc1NCC#Cc1nc2c(NC3CC4(C3)CN(C)C4)cccn2c1CC(F)(F)F ? 10 to 100 nM

What value of measured Kd is listed for CNC(=O)c1cc(NCC#Cc2nc3c(N[C@@H]4CCN(C)C[C@@H]4F)cccn3c2SC(F)(F)F)c(OC)cc1F ? < 10 nM

What value of measured Kd is listed for CNC(=O)c1ccc(NCC#Cc2nc3c(N[C@@H]4CCNC[C@@H]4F)cccn3c2SC(F)(F)F)c(OC)c1 ? < 10 nM

What value of measured Kd is listed for CNC(=O)c1ccc(OC)c(NCC#Cc2nc3c(N[C@@H]4CNC[C@@H]4F)cccn3c2SC(F)(F)F)n1 ? < 10 nM

What value of measured Kd is listed for CN1CC[C@@H](Nc2cccn3c(CC(F)(F)F)c(C#CCNc4ccc(S(C)(=O)=O)cc4F)nc23)[C@@H](F)C1 ? 10 to 100 nM

What value of measured Kd is listed for CNC(=O)c1ccc(OC)c(NCC#Cc2nc3c(N[C@@H]4CNC[C@@H]4F)cccn3c2SC(F)(F)F)c1 ? < 10 nM

What value of measured Kd is listed for CNC(=O)c1ccc(NCC#Cc2nc3c(N[C@@H]4CCN(C)C[C@@H]4F)cccn3c2CC(F)(F)F)c(OC)c1 ? < 10 nM

What value of measured Kd is listed for CNC(=O)c1ccc(NCC#Cc2nc3c(N[C@@H]4CCN(C)C(=O)C4)cccn3c2SC(F)(F)F)c(OC)c1 ? 10 to 100 nM

What value of measured Kd is listed for CCc1c(C#CCNc2ccc(S(C)(=O)=O)cc2OC)nc2c(N[C@@H]3CCN(C)C[C@@H]3F)cccn12 ? 10 to 100 nM

New cases:
What value of measured Kd is listed for CNC(=O)c1ccc(OC)c(NCC#Cc2cc3c(N[C@@H]4CN(C)C[C@@H]4F)nccn3c2SC(F)(F)F)n1 ? < 10 nM

What value of measured Kd is listed for COC[C@H](O)CN1CCC(Nc2cccn3c(CC(F)(F)F)c(C#CCNc4ccc(S(C)(=O)=O)cc4OC)nc23)CC1 ? 10 to 100 nM

What value of measured Kd is listed for CNC(=O)c1ccc(NCC#Cc2nn3c(N[C@@H]4CCN(C)C[C@@H]4F)cccc3c2CC(F)(F)F)c(OC)c1 ? 10 to 100 nM

What value of measured Kd is listed for COc1cc(S(C)(=O)=O)ccc1NCC#Cc1nc2c(N[C@@H]3CCN(C)C[C@@H]3F)cccn2c1CC(F)(F)F ? < 10 nM
